- target or system: BpGH3-AR8MLG (Blautia producta)
- Sequence (A0ABX6J8C8 entry or part of it): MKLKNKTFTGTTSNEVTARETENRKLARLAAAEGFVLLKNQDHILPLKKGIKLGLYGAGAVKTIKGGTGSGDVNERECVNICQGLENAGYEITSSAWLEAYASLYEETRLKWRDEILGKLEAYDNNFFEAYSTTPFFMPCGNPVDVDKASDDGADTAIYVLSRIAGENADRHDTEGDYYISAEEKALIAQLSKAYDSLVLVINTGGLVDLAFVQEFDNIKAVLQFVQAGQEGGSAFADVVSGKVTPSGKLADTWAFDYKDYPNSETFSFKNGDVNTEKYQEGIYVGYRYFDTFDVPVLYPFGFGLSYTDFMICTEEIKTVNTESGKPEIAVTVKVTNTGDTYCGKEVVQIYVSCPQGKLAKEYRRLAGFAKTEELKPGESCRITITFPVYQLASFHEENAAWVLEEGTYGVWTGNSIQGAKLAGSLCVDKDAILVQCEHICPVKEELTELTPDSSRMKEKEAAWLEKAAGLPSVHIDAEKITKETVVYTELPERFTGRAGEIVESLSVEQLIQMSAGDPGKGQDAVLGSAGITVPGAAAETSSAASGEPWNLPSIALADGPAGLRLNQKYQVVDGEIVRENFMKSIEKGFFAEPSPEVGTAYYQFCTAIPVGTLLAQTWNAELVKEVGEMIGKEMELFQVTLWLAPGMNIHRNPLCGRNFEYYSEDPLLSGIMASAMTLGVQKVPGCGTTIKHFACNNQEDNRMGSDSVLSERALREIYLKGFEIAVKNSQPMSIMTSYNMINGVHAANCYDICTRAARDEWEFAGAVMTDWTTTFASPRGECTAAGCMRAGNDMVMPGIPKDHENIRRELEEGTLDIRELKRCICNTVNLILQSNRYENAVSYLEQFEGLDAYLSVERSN
- Assay type: biochemical, Blautia producta ATCC 27340
- conditions used: PAHBAH assay; 100 mM HEPES pH 6.5, 37 °C
The following molecules are shown together with reported Km values.

molecule | Km [µM]
O=C[C@H](O)[C@@H](O)[C@H](O[C@@H]1O[C@H](CO)[C@@H](O)[C@H](O)[C@H]1O)[C@H](O)CO | 200
OC[C@H]1O[C@@H](O[C@H]2[C@H](O)[C@@H](O)[C@H](O[C@H]3[C@H](O)[C@@H](O)[C@H](O[C@H]4[C@H](O)[C@@H](O)C(O)O[C@@H]4CO)O[C@@H]3CO)O[C@@H]2CO)[C@H](O)[C@@H](O)[C@@H]1O (stereo partly shown) | 470
OC[C@H]1O[C@@H](O[C@H]2[C@H](O)[C@@H](CO)OC(O)[C@@H]2O)[C@H](O)[C@@H](O)[C@@H]1O (stereo partly shown) | 240
OC[C@H]1O[C@@H](O[C@H]2[C@H](O)[C@@H](O)[C@H](O[C@H]3[C@H](O)[C@@H](O)C(O)O[C@@H]3CO)O[C@@H]2CO)[C@H](O)[C@@H](O)[C@@H]1O (stereo partly shown) | 260

----------
- target or system: BpSBPMLG (Blautia producta)
- Sequence (A0ABX6JB09 entry or part of it): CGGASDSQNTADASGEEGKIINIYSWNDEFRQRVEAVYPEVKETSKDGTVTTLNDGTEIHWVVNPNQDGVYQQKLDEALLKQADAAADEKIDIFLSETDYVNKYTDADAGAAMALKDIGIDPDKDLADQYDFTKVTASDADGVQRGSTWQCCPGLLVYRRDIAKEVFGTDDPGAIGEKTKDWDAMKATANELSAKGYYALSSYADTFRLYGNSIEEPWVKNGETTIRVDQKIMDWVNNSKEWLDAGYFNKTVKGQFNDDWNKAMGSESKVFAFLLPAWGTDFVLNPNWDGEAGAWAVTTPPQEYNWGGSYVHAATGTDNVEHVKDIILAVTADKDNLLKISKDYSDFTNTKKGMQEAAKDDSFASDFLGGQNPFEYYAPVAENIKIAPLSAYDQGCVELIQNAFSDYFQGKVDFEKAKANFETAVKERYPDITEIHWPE
- method notes: Isothermal titration calorimetry of oligosaccharide binding to BpSBPMLG
- Design: species or system Blautia producta ATCC 27340
The following molecules are shown together with reported Kd values.

molecule | Kd (µM)
OC[C@H]1O[C@@H](O[C@H]2[C@H](O)[C@@H](CO)OC(O)[C@@H]2O)[C@H](O)[C@@H](O)[C@@H]1O (stereo partly shown) [Laminaribiose] | 22.1
OC[C@H]1O[C@@H](O[C@H]2[C@H](O)[C@@H](O)[C@H](O[C@H]3[C@H](O)[C@@H](O)C(O)O[C@@H]3CO)O[C@@H]2CO)[C@H](O)[C@@H](O)[C@@H]1O (stereo partly shown) [Cellotriose] | 1.74
OC[C@H]1O[C@@H](O[C@H]2[C@H](O)[C@@H](O)[C@H](O[C@H]3[C@H](O)[C@@H](CO)OC(O)[C@@H]3O)O[C@@H]2CO)[C@H](O)[C@@H](O)[C@@H]1O (stereo partly drawn) [G4G3G, Glc-β-1-4-Glc-β-1-3-Glc] | 1.01
OC[C@H]1O[C@@H](O[C@@H]2[C@@H](O)[C@H](O[C@H]3[C@H](O)[C@@H](CO)OC(O)[C@@H]3O)O[C@H](CO)[C@H]2O)[C@H](O)[C@@H](O)[C@@H]1O (stereo partly shown) [Laminaritriose] | 3.41
OC[C@H]1O[C@@H](O[C@H]2[C@H](O)[C@@H](O)[C@H](O[C@H]3[C@H](O)[C@@H](O)[C@H](O[C@H]4[C@H](O)[C@@H](O)C(O)O[C@@H]4CO)O[C@@H]3CO)O[C@@H]2CO)[C@H](O)[C@@H](O)[C@@H]1O (stereo partly shown) [Cellotetraose] | 0.75
O=C[C@H](O)[C@@H](O)[C@H](O[C@@H]1O[C@H](CO)[C@@H](O)[C@H](O)[C@H]1O)[C@H](O)CO [Cellobiose] | 30.6
OC[C@H]1O[C@@H](O[C@H]2[C@H](O)[C@@H](O)[C@H](O[C@H]3[C@H](O)[C@@H](O)[C@H](O[C@H]4[C@H](O)[C@@H](CO)OC(O)[C@@H]4O)O[C@@H]3CO)O[C@@H]2CO)[C@H](O)[C@@H](O)[C@@H]1O (stereo partly drawn) [G4G4G3G, Glc-β-1-4-Glc-β-1-4-Glc-β-1-3-Glc] | 5.14

// provenance: paper PMC10318527
